Biological target: T1, Bovine carbonic anhydrase II (bovine, UniProt P00921 2-260)
T1 construct: Commercial protein; also called BCA
T1 sequence (P00921 2-260 limits assumed): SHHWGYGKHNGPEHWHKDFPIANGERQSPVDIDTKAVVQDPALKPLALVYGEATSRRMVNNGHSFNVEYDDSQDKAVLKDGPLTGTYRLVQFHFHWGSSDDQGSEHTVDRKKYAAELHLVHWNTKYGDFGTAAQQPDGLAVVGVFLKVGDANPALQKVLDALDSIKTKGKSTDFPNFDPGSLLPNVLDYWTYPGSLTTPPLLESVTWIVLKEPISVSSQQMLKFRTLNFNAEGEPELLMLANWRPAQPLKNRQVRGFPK
Assay: ITC, replicate [row SA-WIVP, right panel]
SA = 4-(aminooxymethyl)benzenesulfonamide joined by oxime ligation to the periodate-oxidised N-terminal serine
Recorded Metric: Kd (nM)
Answers are plain numbers, in nM.

Give the measured Kd of {SA}-WIVP-NH2 (also: N-terminal SA cap oxime-linked, made from oxidised N-terminal Ser, Synthetic conjugate made from the peptide S-WIVP; The N-terminal Ser is turned into the oxime-linked sulfonamide; also called sulfonamide-peptide; SA-XXXX) [SA-WIVP (sulfonamide-modified peptide)] .
6
